Source of measurements: PubChem BioAssay

Biological target: Epidermal growth factor receptor (Homo sapiens) (UniProt P00533)
Sequence (P00533 whole entry, looked up): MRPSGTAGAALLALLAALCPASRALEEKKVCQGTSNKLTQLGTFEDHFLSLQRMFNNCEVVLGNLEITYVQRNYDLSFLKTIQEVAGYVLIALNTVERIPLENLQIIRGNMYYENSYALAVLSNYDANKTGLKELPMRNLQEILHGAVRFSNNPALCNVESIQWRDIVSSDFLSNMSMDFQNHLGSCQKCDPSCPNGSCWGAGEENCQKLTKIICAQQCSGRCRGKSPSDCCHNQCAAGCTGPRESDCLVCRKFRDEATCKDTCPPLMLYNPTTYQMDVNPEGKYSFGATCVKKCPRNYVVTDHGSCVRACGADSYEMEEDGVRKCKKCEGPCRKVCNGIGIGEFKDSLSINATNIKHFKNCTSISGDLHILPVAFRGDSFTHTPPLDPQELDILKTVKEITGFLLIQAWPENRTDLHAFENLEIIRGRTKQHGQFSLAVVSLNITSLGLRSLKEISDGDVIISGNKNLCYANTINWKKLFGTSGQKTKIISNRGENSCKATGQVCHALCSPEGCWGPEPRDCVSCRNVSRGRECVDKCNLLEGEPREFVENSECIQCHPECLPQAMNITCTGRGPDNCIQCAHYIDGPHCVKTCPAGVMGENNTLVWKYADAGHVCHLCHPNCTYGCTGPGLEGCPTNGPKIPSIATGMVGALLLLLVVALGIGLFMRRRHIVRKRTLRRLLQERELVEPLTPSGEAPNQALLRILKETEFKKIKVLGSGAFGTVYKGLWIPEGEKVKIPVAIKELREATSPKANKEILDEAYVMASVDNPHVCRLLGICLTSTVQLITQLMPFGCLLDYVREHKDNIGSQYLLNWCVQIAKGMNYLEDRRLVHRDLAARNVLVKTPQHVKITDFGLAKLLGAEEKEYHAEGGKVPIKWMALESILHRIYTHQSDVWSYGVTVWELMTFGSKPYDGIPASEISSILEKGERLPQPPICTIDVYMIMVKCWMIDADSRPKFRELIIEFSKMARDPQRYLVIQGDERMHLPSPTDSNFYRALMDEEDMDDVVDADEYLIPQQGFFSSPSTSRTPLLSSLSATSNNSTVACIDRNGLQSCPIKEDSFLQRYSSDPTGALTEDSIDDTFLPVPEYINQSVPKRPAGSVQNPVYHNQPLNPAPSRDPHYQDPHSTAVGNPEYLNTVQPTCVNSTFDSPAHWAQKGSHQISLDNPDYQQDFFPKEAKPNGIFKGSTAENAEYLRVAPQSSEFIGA
Assay: EGFR binders on small-molecule microarrays, primary screen, biochemical, small-molecule microarray, 635 nm fluorescence (AID 1104);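 also: score merges 667 nm emission intensity with spot signal to noise over triplicate slides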
Conditions: EGFR binding, higher = more signal
value kind: composite z-score
Answers are plain numbers.

Record excerpt, results attached:
[
  {
    "test smiles": "CCC[C@@H]1C[C@@]1(CCC)[C@@H](NC(=O)OCc1ccccc1)c1ccc(-c2ccccc2)cc1",
    "assay system": "Epidermal growth factor receptor (Homo sapiens) (UniProt P00533)",
    "composite z-score": -1.1
  },
  {
    "test smiles": "C=CC[C@]1(C(=O)NCCN2CCOCC2)N=C(c2ccc(OCCCO)cc2)O[C@H]1c1ccccc1CN=[N+]=[N-]",
    "assay system": "Epidermal growth factor receptor (Homo sapiens) (UniProt P00533)",
    "composite z-score": 0.409
  },
  {
    "test smiles": "CCCCCCc1nc(C2CC2)cc2c1[Si](C(C)C)(C(C)C)OC2",
    "assay system": "Epidermal growth factor receptor (Homo sapiens) (UniProt P00533)",
    "composite z-score": -0.375
  }
]

# batch size: 5; output composite z-score per entry
1. CCCC[C@@H]1C[C@H]1[C@@H](NC(=O)c1ccccc1)c1ccc(C(F)(F)F)cc1
2. Cc1ccc(S[C@]2(C(=O)NCC(F)(F)F)CC(=O)N(Cc3ccccc3C(F)(F)F)[C@@H]2c2ccc(CO)cc2I)cc1
3. O[C@@H](Cc1ccccc1)[C@@H](/C=C/C1CC1)N(CC#Cc1ccccc1)Cc1cccc(Cl)c1
4. CCCCC=C[C@@H](NC(=O)c1ccc(-c2ccccc2)cc1)c1ccccc1
5. O=C1C[C@@](C(=O)NCCN2CCOCC2)(c2ccc([N+](=O)[O-])cc2)[C@@H](c2ccc(CO)cc2I)N1C1CCCCC1

-1.09
-1.96
-1.69
0.0139
0.593

---

Test system: Neuregulin-1 EGF-like domain
Assay: binders of neuregulin-1 EGF-like domain, primary screen, biochemical, small-molecule microarray, 635 nm fluorescence (AID 1081);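 also: binding of the protein to compounds printed on small-molecule microarray slides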
Details: small-molecule microarray binding, higher = more signal
value kind: composite z-score
Answers are plain numbers.

[
  {
    "compound": "CC(C)C(=C=CC[C@H](O)c1ccc(OCCO)cc1)C[C@H](O)c1ccccn1",
    "composite z-score": 1.28
  }
]

Parameter requested: composite z-score. Apply to each item below.
1. O=C(NCC(F)(F)F)[C@@H]1c2ccccc2C(=O)N(Cc2ccc(OC(F)(F)F)cc2)[C@H]1c1ccc(CO)cc1
2. CC(C)Cc1ccc(CN2CC[C@@H](NC(=O)Nc3ccccc3)C2)cc1
3. OCCCC1=CC(c2ccc(CN3CCCC3)cc2)N(Cc2sc3ccccc3c2Cl)CC1 (stereo not given)
4. COC(=O)[C@@]1(Cc2ccccc2)[C@@H]2C(=CC(=O)[C@H]2CC(=O)C(=O)N(C)C)CN1C(=O)c1ccccc1
5. O=C1O[C@H](c2ccccc2)[C@H](c2ccccc2)N2[C@H]1[C@@H](C(=O)N1CCN(c3ncccn3)CC1)[C@]1(C(=O)Nc3ccc(C#CC4(O)CCCCCC4)cc31)[C@H]2c1ccc(OCCO)cc1
6. CC(C)(C)OC(=O)CC[C@]1(C(=O)NCC(O)CO)N=C(c2ccc(OCCCO)cc2)O[C@H]1c1ccccc1 (stereo not given in full)
7. C[C@]1(C(=O)NC2CC2)c2ccccc2C(=O)N(Cc2ccccc2)[C@H]1c1ccc(CO)cc1

1: 1.1; 2: -0.0603; 3: 1.27; 4: 1.32; 5: 1.22; 6: 1.33; 7: 0.659

Batch request: composite z-score per item, same order as input.
1. COC(=O)C(CC#Cc1ccc2c(c1)[C@]1(C(=O)N2)[C@H](C(=O)N2CCN(c3ncccn3)CC2)[C@H]2C(=O)O[C@H](c3ccccc3)[C@H](c3ccccc3)N2[C@@H]1c1ccc(OCCO)cc1)C(=O)OC
2. CN1C(=O)C2C=CC(C(O)c3cccc4ccccc34)N(N3CCCCC3)C2C1=O (stereo not given)
3. [N-]=[N+]=NCc1ccccc1C[C@@]1(C(=O)N2CCOCC2)N=C(c2ccc(OCCCO)cc2)O[C@@H]1c1ccccc1
4. C=C(/C(=C/C[C@H](OC(C)=O)c1ccccc1OCCO)c1cc(C(=O)OC)ccc1OC)C(C)C
5. COC(=O)c1c2oc(c1C(=O)OC)C(=O)N(C)Cc1cn(nn1)C[C@H](Cc1ccccc1)NC(=O)N[C@H](CO)CC2
6. CC(C)N1C(=O)C[C@@](C(=O)NCCCN(C)C)(c2ccc([N+](=O)[O-])cc2)[C@H]1c1ccc(CO)cc1
7. CC(=O)NCCCC[C@@H]1NC(=O)[C@@H]2C[C@H](C(=O)NCCCC[N+](C)(C)C)[C@H](c3ccc(O)cc3)N2C1=O

1.26
1.19
1.1
1.09
-0.717
-0.412
1.19

Provide composite z-score values for the following items, in order.
1. COc1cc2c(cc1OC)CN(C(=O)[C@@H]1[C@H]3C(=O)O[C@H](c4ccccc4)[C@H](c4ccccc4)N3[C@H](c3ccc(OCCO)cc3)[C@@]13C(=O)Nc1ccccc13)CC2
2. CCCNC(=O)[C@@H]1c2ccccc2C(=O)N(C(C)C)[C@H]1c1ccc(CO)cc1
3. CC(=O)c1ccc(C(O)C2C=CC3C(=O)N(c4ccccc4)C(=O)C3N2Nc2ccc(C#N)cc2)cc1 (stereo not given)
4. CCCNC(=O)[C@@]1(c2ccc([N+](=O)[O-])cc2)CC(=O)N(C2CCCCC2)[C@@H]1c1ccc(CO)cc1
5. [N-]=[N+]=Nc1ccccc1[C@@H]1OC(c2ccc(OCCCO)cc2)=N[C@]1(Cc1ccccc1)C(=O)NCC(O)CO (stereo not given in full)
6. N#Cc1ccc(NN2C(C(O)c3ccc(F)cc3)C=CC3C(=O)N(c4ccccc4)C(=O)C32)cc1 (stereo not given)

1.23
1.2
0.609
1.27
1.06
1.07

Kindly give each listed record's composite z-score.
1. C[N+](C)(C)CCCCCCNC(=O)[C@H]1C[C@H]2C(=O)N[C@@H](Cc3ccccc3)C(=O)N2[C@H]1c1ccc(O)cc1
2. N#Cc1ccc(C(O)C2C=CC3C(=O)N(c4ccccc4)C(=O)C3N2Nc2ccccc2)cc1 (stereo not given)
3. O=C1NC(=O)C2C1C=CC(C(O)CCc1ccccc1)N2Nc1ccc(Cl)cc1Cl (stereo not given)

1. 1.21
2. 1.08
3. 1.1

For each of the items listed, what is its composite z-score?
1. COc1cc(OC)c(C(O)C2C=CC3C(=O)N(c4ccccc4)C(=O)C3N2Nc2ccccc2)cc1Br (stereo not given)
2. C=CCC(OC(C)=O)[C@@H]1[C@@H](N(Cc2ccc(-c3ccccc3)cc2)C(=O)Cc2ccc(F)cc2)c2cc(OCCCO)ccc2N1C(=O)Cc1ccc(OC)cc1 (stereo not given in full)
3. OCC1CC(c2ccccc2)=NO1 (stereo not given)

1: 0.936; 2: -0.438; 3: -0.164

Each of the following entries comes with a recorded value; kindly state composite z-score for each.
1. COc1ccc([Si](C)(C)[C@@H]2[C@@H](CC(=O)N(CCO)Cc3ccccc3)O[C@]3(C(=O)N(Cc4cccc(N5C(=O)c6cccc7cccc5c67)c4)c4ccccc43)[C@H]2C)cc1
2. COC(=O)[C@@]1(Cc2ccccc2)[C@H]2c3cc(C(=O)N(C)C)n(Cc4c(CO)[nH]cc(C)c4=O)c3C[C@H]2CN1C(=O)c1ccccc1
3. O=C1C=C(c2ccccc2)C(=O)c2ccc([C@H]3Oc4ccccc4S(=O)(=O)N4CCC[C@@H]34)cc21

[0.763, 1.38, -0.87]
